# SYSTEM_TESTED: T1, human FCGRT (human, UniProt P55899 24-297, biotinylated (Avi tag) in the blocking assays)
# T1 construct: Alpha chain alone, expressed in Expi293 cells with His and Avi tags; also called FCGRT of human FcRn protein; biotinylated human FCGRT; not shown: His tag and Avi tag
# TEST_SUMMARY: ELISA: human FCGRT coated, antibody titrated, goat anti-human IgG Fab-HRP, OD450
QUANTITY_KIND: EC50 (read off the curve)

# BINDER, QUANTITY_KIND, MEASUREMENT
records = [
    ("ZLP198 (antibody, V domains shown, Full-length chimeric antibody with human IgG1 or IgG4 heavy constant and human kappa or lambda light constant domain) VH: EVKLMESGPDLVKPSQSLSLTCTVTGYSITSGYSWHWIRHFPGKKLEWMGYIHNSGSTNYNPSLKSRISISRETSKNQFFLQLNSVTTEDTATYYCAREGYGGYWYFDVWGAGTSVTVSS VL: DIVLTQSPAIMSASPGEKVTMTCSASSSVSYMYWYQQKPGSSPKPWIYGTSNLASGVPVRFSGSGSGTSYSLTISRMEAEDAATYYCQQRSSYPYTFGGGTKLEIK", "EC50 (read off the curve)", "~20 nM"),
]
